Target: T1, HTRA3, P83110
T1 sequence (P83110 354-453, limits assumed, looked up): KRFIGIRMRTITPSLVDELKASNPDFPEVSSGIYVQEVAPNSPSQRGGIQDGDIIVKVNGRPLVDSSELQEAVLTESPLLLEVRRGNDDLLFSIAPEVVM
Assay: holdup assay
Set-up: key: below the threshold = too weak to quantify, mostly under pKd 3.1 to 4
Details: plain residues with an end cap or a label only (N-terminal biotin on a linker: ado-ado)
ENDPOINT_NAME: pKd

>>> df
                        binder  endpoint_value
0  EDLEDEWEVI [TECPR2, O15040]            4.12
1   DGVNEKVSCV [HTR2A, P28223]            3.94
2  SLNANEVEWF [RNF130, Q86XS8]            4.68
